System: HL60
protocol notes: MTT cytotoxicity, HL60
Type: cell-based, human
particulars: 48 h incubation, read-out: Cytotoxic effect, IC50
property measured: IC50

Look over these answered cases.
Cc1ccc(C(C)C)cc1.Cc1ccc(C(C)C)cc1.[Cl][Ru][Cl].[Cl][Ru][Cl] [compound 4, dichloro(p-cymene)ruthenium(II), reference compound] :: > 200 µM
Cc1cc(O)n(C(N)=S)n1.Cc1ccc(C(C)C)cc1.F[P-](F)(F)(F)(F)F.[Cl-].[Ru+2] :: > 200 µM

As a next step, examine the compound that follows.
Exam item: Item: `Cc1cc(O)n(C(N)=S)n1.Cc1ccc(C(C)C)cc1.[Cl-].[Cl][Ru+]` Test system: HL60 Read-out: IC50 Value: ?
Marked response: > 200 µM

Where these numbers come from: paper PMC10180065
